- tested target: furin, P09958;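 note: purified furin at 1:10 enzyme:substrate in 50 mM HEPES pH 7.5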
- Sequence (P09958 whole entry): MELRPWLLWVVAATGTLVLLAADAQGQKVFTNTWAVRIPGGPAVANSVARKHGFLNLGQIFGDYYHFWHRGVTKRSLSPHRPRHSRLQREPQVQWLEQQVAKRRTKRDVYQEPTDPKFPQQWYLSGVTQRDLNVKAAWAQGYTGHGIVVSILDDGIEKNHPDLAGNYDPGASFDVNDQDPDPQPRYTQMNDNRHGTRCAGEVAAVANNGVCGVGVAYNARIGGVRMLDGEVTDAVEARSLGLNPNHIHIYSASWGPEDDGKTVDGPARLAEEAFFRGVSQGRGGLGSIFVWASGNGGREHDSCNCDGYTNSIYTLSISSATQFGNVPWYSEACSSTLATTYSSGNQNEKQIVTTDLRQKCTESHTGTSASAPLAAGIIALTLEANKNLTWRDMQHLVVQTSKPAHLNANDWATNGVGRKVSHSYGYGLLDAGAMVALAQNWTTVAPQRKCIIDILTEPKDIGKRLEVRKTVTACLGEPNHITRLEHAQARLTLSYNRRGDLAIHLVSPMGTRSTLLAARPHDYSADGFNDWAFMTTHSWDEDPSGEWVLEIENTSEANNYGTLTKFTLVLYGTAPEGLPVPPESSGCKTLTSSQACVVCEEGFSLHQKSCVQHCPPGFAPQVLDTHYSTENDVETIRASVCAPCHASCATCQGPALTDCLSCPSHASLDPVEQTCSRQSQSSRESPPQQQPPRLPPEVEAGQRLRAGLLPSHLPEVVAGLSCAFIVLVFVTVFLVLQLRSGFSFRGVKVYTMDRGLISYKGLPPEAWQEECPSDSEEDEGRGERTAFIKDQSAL
- procedure details: furin cleavage Z-score vs untreated control; higher = more cleavage, active = 3.5 or more, inactive = 1 or less, 8 variable residues between constant flanks
- condition notes: 30 min
Some of the results follow. The true hit rate is not given.
Items are presented alongside their recorded furin cleavage Z-score.
Just the number, please, no unit attached.

# annotated cases, reported furin cleavage Z-score shown
# biopolymer sequence, quantity, test result
rows = [
    ("CARNKRNSKMAGNASASA [FU4]", "furin cleavage Z-score", 7.99),
    ("CARAKRGNIHAGNASASA [FS-2250]", "furin cleavage Z-score", 1.46),
    ("CARNKRIWASAGNASASA [FS-2728]", "furin cleavage Z-score", -0.176),
]

Now consider a different sequence.
Problem: // lookup furin cleavage Z-score for CARNKRNSKMAGNASASA [FS-2397]
Solution: 7.25
